- Tested on: CCRIS mutagenicity, Ames/micronucleus/aberration tests
- Measurement notes: CCRIS mutagenicity studies
- Assay context: Test System: AMES SALMONELLA TYPHIMURIUM; Strain/Indicator: TA100; Metabolic Activation: NONE; Method: PREINCUBATION
- Source text: The CCRIS database contains chemical records with carcinogenicity, mutagenicity, tumor promotion, and tumor inhibition test results. It was developed by the National Cancer Institute (NCI). Data are derived from studies cited in primary journals, current awareness tools, NCI reports, and other sources. Test results have been reviewed by experts in carcinogenesis and mutagenesis. CCRIS provides historical information from the years 1985 - 2011. It is no longer updated. […]
Calls of active or inactive are those of the source. How the calls were made is not given here.
In this exercise, the only acceptable responses are True for active, False for inactive

Answered cases to consult:
* O=C1O[C@H]([C@@H](O)CO)C(O)=C1O | False
* Cc1ccc(C(=O)Cl)cc1 | True
* CC(=O)CC(=O)Nc1ccc(O)cc1 | False
* COC=O | False
* C=CC(C)C#N (stereo not given) | False

--- query ---
What classification did O=[N+]([O-])CCO end up with in this test?
False

* * *

- System: CCRIS mutagenicity, Ames/micronucleus/aberration tests
- Measurement notes: CCRIS mutagenicity studies
- Assay context: Test System: AMES SALMONELLA TYPHIMURIUM; Strain/Indicator: TA100; Metabolic Activation: RAT, LIVER, S-9, AROCLOR 1254 (10%); Method: PREINCUBATION
Activity calls are given as the source filed them. How the calls were made is not given here.
In this exercise, the only acceptable responses are active, inactive

Answered cases to consult:
- O=C1C=C(O)c2ccccc2C1=O: inactive
- N#CCc1ccccc1: inactive
- CCCCC(CC)CNCC(CC)CCCC (centres undefined): inactive

What classification did C=C(C#N)C(=O)OC end up with in this test?
active

What classification did Cc1cc(=O)[nH]c(=S)[nH]1 end up with in this test?
inactive

What classification did Nc1ccc(Sc2ccc(N)cc2)cc1 end up with in this test?
active

What classification did Cc1ccc(Cl)cc1 end up with in this test?
inactive

What classification did O.O.O.O.O.O.O=[N+]([O-])[O-].O=[N+]([O-])[O-].O=[N+]([O-])[O-].[La+3] end up with in this test?
inactive

What classification did CNCCS(=O)(=O)O end up with in this test?
inactive

What classification did BrCC(Br)C1CCC(Br)C(Br)C1 (centres undefined) end up with in this test?
inactive

What classification did c1ccc(N(c2ccccc2)c2ccccc2)cc1 end up with in this test?
inactive

What classification did O=[N+]([O-])c1ccc(NCCO)c(OCCO)c1 end up with in this test?
active

What classification did ClCC(Cl)CCl end up with in this test?
active

What classification did CC(C)CNCC(C)C end up with in this test?
inactive

What classification did CCCC(C)(COC(N)=O)COC(=O)NC(C)C (centres undefined) end up with in this test?
inactive

What classification did CCCCC(C=O)CC (centres undefined) end up with in this test?
inactive

* * *

- System: CCRIS mutagenicity, Ames/micronucleus/aberration tests
- Measurement notes: CCRIS mutagenicity studies
- Assay context: Test System: AMES SALMONELLA TYPHIMURIUM; Strain/Indicator: TA100; Metabolic Activation: MOUSE, LIVER, S-9, AROCLOR 1254; Method: STANDARD PLATE
Activity calls are given as the source filed them. No rule for the calls is given here.
Parameter measured: mutagenic call

Worked examples follow.
* CC1(C(=O)NCc2ccccc2)CO1 (stereo unspecified) | active; positive
* Nc1ccccc1 | inactive; negative
* CC1(C)COC1=O | active; positive
* CCOc1ccc(NC(C)=O)cc1 | inactive; negative
* O=C(CBr)Nc1ccccc1 | inactive; negative

Here's the next entry for you.
Give mutagenic call only, for Nc1ccc2c(c1)C(=O)c1ccccc1C2=O , using CCRIS mutagenicity, Ames/micronucleus/aberration tests data.
active; positive
